Reference source for all entries: the RNAGym collection of RNA variant scans (doi:10.7554/elife.90254)

B1: LINE1-full (parent)
chain: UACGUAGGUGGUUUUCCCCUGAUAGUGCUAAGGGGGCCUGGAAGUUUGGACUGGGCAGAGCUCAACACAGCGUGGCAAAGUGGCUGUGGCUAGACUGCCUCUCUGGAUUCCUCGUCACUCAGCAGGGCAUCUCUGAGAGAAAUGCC

# Variants of: B1
# measurement.protocol: self-cleavage, relative activity (ratio to wild type); higher = more cleavage; in vitro, sequencing; the parent is a self-cleaving ribozyme
Let's look at some variants and their measured self-cleavage.
Provide a numeric answer; units are not to be included.

Some entries whose results are on file:
sequence	self-cleavage
UACGUAGGUGGUUUUCCCCUGUUAGUGCUAAGGGGGCCUGGAAGUUUGGACUGGGCAGAGCUCAACACAGCGUGGCAAAGUGGCUGUGGCUAGACUGCUUCUCUGGAUUCCUCGUCACUCAGCAGGGCAUCUCUGAGAGAAAUGCC [A22U C99U]	0.51
UACGUAGGUGGUUUUCCCCUGAUAGUGCUAAGGGGGCCUGGAAGUUUGGACAGGGCAGAGCUCAACACAGCGUGGCAAAGUGGCUGUGGCUUGACUGCCUCUCUGGAUUCCUCGUCACUCAGCAGGGCAUCUCUGAGAGAAAUGCC [U52A A92U]	0.86
UACGUAGGUGGUUUUCCCCUGAUAGUGCUAAGGGGGCCUGGAAGUUUGGACUGGGCAGAGCUCAACACAGCGUGGCAAAGUGGCUGAGGCUAGACUGCCUCUCUGGAUUCCUCGCCACUCAGCAGGGCAUCUCUGAGAGAAAUGCC [U87A U115C]	0.09
UACGUAGGUGGUUUUCCCCUGAUAGUGCUAAGGGGGCCUGGAAGUUUGGACUGGGCAGAGCUCAACACAGCGAGGCAAAGUGGCUGUGGCUAGACUGCCUCUCUGGAAUCCUCGUCACUCAGCAGGGCAUCUCUGAGAGAAAUGCC [U73A U108A]	1.42
UACGUAGGUGGUUUUCCCCUGAUAGUGCUAAGGGGGCCUGGAAGUUUGGACUGGGCAGAGCUCAGCACAGUGUGGCAAAGUGGCUGUGGCUAGACUGCCUCUCUGGAUUCCUCGUCACUCAGCAGGGCAUCUCUGAGAGAAAUGCC [A65G C71U]	0.03

// switching to the query variant
Query (variant): UACGUAGGUGGUUUUCCCCUGAUAGUGCUAAGGGGGCCUGGAAGUUUGGACUGGGCAGAGCUCAACACAGCGUGGCAAAGUGGCUGUGGCUAGACUGCCUCUCUGGAUUCCUAGCCACUCAGCAGGGCAUCUCUGAGAGAAAUGCC [C113A U115C] ; field requested: self-cleavage
1.5
